Form field: CC50 (one value per entry).
# Tested on: CCRF-CEM
# experiment-description: Cytostatic concentration required to inhibit cell proliferation in human CEM cell line
# Assay type: functional

# input-smiles, CC50
records = [
    ("CNC(=O)Cn1c(=O)c(C)cn([C@@H]2O[C@H](CO[Si](C)(C)C(C)(C)C)[C@@]3(OS(=O)(=O)C=C3N)[C@H]2O[Si](C)(C)C(C)(C)C)c1=O", "≥ 250 µM"),
    ("Cc1cn([C@@H]2O[C@H](CO[Si](C)(C)C(C)(C)C)[C@@]3(OS(=O)(=O)C=C3N)[C@H]2O[Si](C)(C)C(C)(C)C)c(=O)n(CCCN2C(=O)c3ccccc3C2=O)c1=O", "> 250 µM"),
    ("Cc1cn([C@@H]2O[C@H](CO[Si](C)(C)C(C)(C)C)[C@@]3(OS(=O)(=O)C=C3N)[C@H]2O[Si](C)(C)C(C)(C)C)c(=O)n(CCCN(CC(=O)O)CC(=O)O)c1=O", "> 250 µM"),
]

---

Collected pEC50 values appear next to each entry.
# Tested on: Human immunodeficiency virus 2
# experiment-description: Effective concentration required to inhibit HIV-2 induced cytopathicity in human MT-4 cell line
# Type: functional, organism-based
# run-parameters: Human immunodeficiency virus 2, MT4
pEC50: −log10 of the molar value.
measured-endpoint: pEC50

# molecule, measured-endpoint, result
measured = [
    ("Cc1cn([C@@H]2O[C@H](CO[Si](C)(C)C(C)(C)C)C3(OS(=O)(=O)C=C3N)[C@H]2O[Si](C)(C)C(C)(C)C)c(=O)[nH]c1=O (stereo partly drawn)", "pEC50", "< 4.70"),
    ("Cc1cn([C@@H]2O[C@H](CO[Si](C)(C)C(C)(C)C)[C@@]3(OS(=O)(=O)C=C3N)[C@H]2O[Si](C)(C)C(C)(C)C)c(=O)n(CCCN2C(=O)c3ccccc3C2=O)c1=O", "pEC50", "< 3.60"),
    ("CNC(=O)Cn1c(=O)c(C)cn([C@@H]2O[C@H](CO[Si](C)(C)C(C)(C)C)[C@@]3(OS(=O)(=O)C=C3N)[C@H]2O[Si](C)(C)C(C)(C)C)c1=O", "pEC50", "< 3.60"),
]
